Here the recorded fraction unbound is given for each entry.
Assay remarks: Plasma protein binding in rat assessed as unbound fraction
Format: ADME, cell-free
Give a plain numeric answer without units written out.

Structure smiles	fraction unbound
CN1CCc2cc(O)c(N3CC(=O)NS3(=O)=O)c(F)c2CC1	0.874
CCN1CCc2cc(O)c(N3CC(=O)NS3(=O)=O)c(F)c2CC1	0.815

Consider now this further compound.
Req: Endpoint output: fraction unbound of CC(C)CCN[C@@H]1CCc2cc(O)c(N3CC(=O)NS3(=O)=O)c(F)c2C1 . Value?
Resp: 0.896

###

Assay remarks: Apparent permeability of compound in human Caco-2 cells across basolateral to apical side
Reported Papp B→A is given for each of the following compounds.
Give your result in ×10⁻⁶ cm/s as a bare value.

Structure smiles	Papp B→A, ×10⁻⁶ cm/s
O=C1CN(c2c(O)cc3c(c2F)CCN(CC2CC2)CC3)S(=O)(=O)N1	0.18

As a next step, examine the compound that follows.
Req: What measured Papp B→A goes with CC(C)CCN[C@@H]1CCc2cc(O)c(N3CC(=O)NS3(=O)=O)c(F)c2C1 ?
Resp: 0.093
